Tested on: M14 melanoma
Assay: NCI tumour cell line growth inhibition, 48 h
reported metric: GI50

smiles repr: Cc1cc(C)c2c(n1)sc1c(Nc3ccc(Cl)cc3)ncnc12
assay system: M14 melanoma
reported: < 10 nM

smiles repr: COc1cccc(CC(C)=C(c2ccc(OCCN(C)C)cc2)c2ccc(OCCN(C)C)cc2)c1
assay system: M14 melanoma
reported: 612 nM

smiles repr: NC(N)=N/N=C/c1c(-c2ccsc2)nc2sccn12
assay system: M14 melanoma
reported: 18500 nM

smiles repr: O=C(O)COc1ccc2c(=O)c3sc4c(=O)c5ccccc5c(=O)c4c3c(=O)c2c1
assay system: M14 melanoma
reported: 2690 nM

smiles repr: S=C(Nc1ccc(Cl)cc1)Nc1ccc(-c2nc3ccccc3s2)cc1
assay system: M14 melanoma
reported: 14300 nM
